Biological target: HLA-B*27:05
Assay: IEDB peptide-MHC binding, purified MHC/direct/fluorescence; filed as Kd, often an IC50 or EC50 that approximates it; bounds were set here for any values at or beyond the usual limits of such assays
Settings: source organism: Pasteurella multocida
pKd: −log10 of the molar value.
readout-name: pKd

Problem: Data request, read-out pKd, for `LLKDLMPFV`
Result: ≤ 4.70

###

Biological target: HLA-A*31:01
Assay: IEDB peptide-MHC binding, purified MHC/direct/fluorescence; filed as Kd, often an IC50 or EC50 that approximates it; bounds were set here for any values at or beyond the usual limits of such assays
Settings: source organism: Influenza A virus (A/swine/Korea/S190/2004(H9N2))
readout-name: Kd

Problem: Data request, read-out Kd, for `WIPKRNRSI`
Result: ≥ 20 µM

###

Target: HLA-A*02:19
Assay: IEDB peptide-MHC binding, purified MHC/direct/fluorescence; filed as Kd, often an IC50 or EC50 that approximates it; bounds were set here for any values at or beyond the usual limits of such assays
Conditions: source organism: Zaire ebolavirus
pKd: −log10 of the molar value.
readout-name: pKd

Problem: Data request, read-out pKd, for `IMYDHLPGF`
Result: ≤ 4.70

Problem: Please give the result for `ISSGETRSF` too.
Result: ≤ 4.70

###

Molecular target: HLA-B*15:01
Assay: IEDB peptide-MHC binding, purified MHC/direct/fluorescence; filed as Kd, often an IC50 or EC50 that approximates it; bounds were set here for any values at or beyond the usual limits of such assays
Settings: source organism: Brucella suis 1330
readout-name: Kd

Problem: Data request, read-out Kd, for `DPPEPLVRI`
Result: ≥ 20 µM

###

Biological target: HLA-A*68:02
Experiment: IEDB peptide-MHC binding, purified MHC/competitive/radioactivity; filed as Kd, often an IC50 or EC50 that approximates it; bounds were set here for any values at or beyond the usual limits of such assays
Conditions: source organism: Lassa virus GA391
pKd: −log10 of the molar value.
readout-name: pKd

Problem: Data request, read-out pKd, for `LLHGLDFSEV`
Result: ≤ 5.30

###

Target: HLA-B*15:01
Assay: IEDB peptide-MHC binding, purified MHC/direct/fluorescence; filed as Kd, often an IC50 or EC50 that approximates it; bounds were set here for any values at or beyond the usual limits of such assays
Conditions: source organism: Salmonella enterica
pKd: −log10 of the molar value.
readout-name: pKd

Problem: Data request, read-out pKd, for `LLQGVPFHV`
Result: ≤ 4.70

###

Molecular target: HLA-A*31:01
Test: IEDB peptide-MHC binding, purified MHC/competitive/fluorescence; filed as Kd, often an IC50 or EC50 that approximates it; bounds were set here for any values at or beyond the usual limits of such assays
Conditions: source organism: Orthohantavirus tulaense
readout-name: Kd (nM)
Answer in nM, number only, no unit symbol.

Problem: Data request, read-out Kd, for `ILMARYMSK`
Result: 15.2

###

Molecular target: HLA-B*44:02
Assay: IEDB peptide-MHC binding, purified MHC/competitive/radioactivity; filed as Kd, often an IC50 or EC50 that approximates it; bounds were set here for any values at or beyond the usual limits of such assays
Settings: source organism: Dengue virus 1 Brazil/97-11/1997
Assign Kd to each entry below.
Answer in nM, number only, no unit symbol.

Problem: Data request, read-out Kd, for `RELKCGSGI`
Result: 119

Problem: Please give the result for `VEPWLRGNQF` too.
Result: 73

Problem: Please give the result for `SEMGANFRAD` too.
Result: 137

Problem: Please give the result for `SEMAEALKGM` too.
Result: 68.3

###

Target: HLA-B*58:01
Experiment: IEDB peptide-MHC binding, purified MHC/competitive/radioactivity; filed as Kd, often an IC50 or EC50 that approximates it; bounds were set here for any values at or beyond the usual limits of such assays
Details: source organism: Dengue virus 3 Singapore/8120/1995
Assign Kd to each entry below.
Answer in nM, number only, no unit symbol.

Problem: Data request, read-out Kd, for `HSSTWHYDDE`
Result: 866

Problem: Please give the result for `TAAVLLLVTH` too.
Result: 304

###

Molecular target: HLA-B*51:01
Test: IEDB peptide-MHC binding, purified MHC/competitive/fluorescence; filed as Kd, often an IC50 or EC50 that approximates it; bounds were set here for any values at or beyond the usual limits of such assays
Details: source organism: Orthohantavirus tulaense
readout-name: Kd

Problem: Data request, read-out Kd, for `ILMARYMSK`
Result: ≥ 20 µM

###

Target: HLA-B*18:01
Assay: IEDB peptide-MHC binding, purified MHC/direct/fluorescence; filed as Kd, often an IC50 or EC50 that approximates it; bounds were set here for any values at or beyond the usual limits of such assays
Conditions: source organism: Influenza A virus (A/Wisconsin/4755/1994(H1N1))
readout-name: Kd

Problem: Checklist item: Kd tested on HLA-B*18:01, entry `ITKEKKEEL` , value?
Result: ≥ 20 µM

###

Target: HLA-A*69:01
Assay: IEDB peptide-MHC binding, purified MHC/direct/fluorescence; filed as Kd, often an IC50 or EC50 that approximates it; bounds were set here for any values at or beyond the usual limits of such assays
Conditions: source organism: Camelpox virus M-96
readout-name: Kd

Problem: Checklist item: Kd tested on HLA-A*69:01, entry `IFLIITKVF` , value?
Result: ≥ 20 µM

###

Molecular target: HLA-A*02:01
Experiment: IEDB peptide-MHC binding, purified MHC/competitive/fluorescence; filed as Kd, often an IC50 or EC50 that approximates it; bounds were set here for any values at or beyond the usual limits of such assays
Conditions: source organism: Influenza A virus (A/turkey/Wisconsin/1968(H5N9))
readout-name: pKd
# log scale: pKd equals minus log10 of the concentration in mol/L

Problem: Data request, read-out pKd, for `MLMPRQKI`
Result: 5.81

###

Biological target: HLA-A*02:01
Assay: IEDB peptide-MHC binding, purified MHC/direct/fluorescence; filed as Kd, often an IC50 or EC50 that approximates it; bounds were set here for any values at or beyond the usual limits of such assays
Conditions: source organism: Burkholderia mallei
readout-name: Kd (nM)
Answer in nM, number only, no unit symbol.

Problem: Checklist item: Kd tested on HLA-A*02:01, entry `YLACKQHAL` , value?
Result: 62.5

###

Assign log10 of Kd to each entry below.
Target: HLA-A*31:01
Experiment: IEDB peptide-MHC binding, purified MHC/competitive/radioactivity; filed as Kd, often an IC50 or EC50 that approximates it; bounds were set here for any values at or beyond the usual limits of such assays
Settings: source organism: Vaccinia virus WR
Give log10 of Kd, with Kd taken in nM.

Problem: Data request, read-out log10 of Kd, for `NTYLFNILY`
Result: 2.84

Problem: Please give the result for `PISASDMQK` too.
Result: 2.45

Problem: Please give the result for `FLELKRGIYK` too.
Result: 2.08

Problem: Please give the result for `RVAVNKSNK` too.
Result: 1.76

Problem: Please give the result for `KSTQSVLCVK` too.
Result: 1.95

Problem: Please give the result for `KIPIYSHTER` too.
Result: 1.41

Problem: Please give the result for `LSDIISAEK` too.
Result: 3.26

Problem: Please give the result for `VSMMSMYGK` too.
Result: 2.05

###

Target: HLA-A*68:01
Experiment: IEDB peptide-MHC binding, purified MHC/competitive/radioactivity; filed as Kd, often an IC50 or EC50 that approximates it; bounds were set here for any values at or beyond the usual limits of such assays
Conditions: source organism: Dengue virus 4 Dominica/814669/1981
readout-name: pKd
# log scale: pKd equals minus log10 of the concentration in mol/L

Problem: Data request, read-out pKd, for `NSALTLHWFR`
Result: 8.76

###

Target: HLA-A*01:01
Experiment: IEDB peptide-MHC binding, purified MHC/direct/fluorescence; filed as Kd, often an IC50 or EC50 that approximates it; bounds were set here for any values at or beyond the usual limits of such assays
Settings: source organism: Vibrio parahaemolyticus
readout-name: Kd

Problem: Data request, read-out Kd, for `LVAPHMAMM`
Result: ≥ 20 µM

Problem: Please give the result for `DTWHGFKNM` too.
Result: ≥ 20 µM

###

Molecular target: HLA-A*30:01
Assay: IEDB peptide-MHC binding, purified MHC/competitive/fluorescence; filed as Kd, often an IC50 or EC50 that approximates it; bounds were set here for any values at or beyond the usual limits of such assays
Conditions: source organism: Vibrio cholerae O1 biovar El Tor str. N16961
readout-name: pKd
# log scale: pKd equals minus log10 of the concentration in mol/L

Problem: Checklist item: pKd tested on HLA-A*30:01, entry `YLKKGRLSL` , value?
Result: 5.83

###

Target: HLA-A*26:01
Assay: IEDB peptide-MHC binding, purified MHC/direct/fluorescence; filed as Kd, often an IC50 or EC50 that approximates it; bounds were set here for any values at or beyond the usual limits of such assays
Conditions: source organism: Burkholderia mallei ATCC 23344
readout-name: Kd (nM)
Answer in nM, number only, no unit symbol.

Problem: Checklist item: Kd tested on HLA-A*26:01, entry `STYQPLPLY` , value?
Result: 39
